# Test system: OVCAR4
# assayDetails: Euclidean distance of Cell Painting phenotypic profile (signed KS, 77 features) to DMSO centroid (dimensionless distance); 5 or 10 uM (library dependent); higher = stronger phenotypic change vs DMSO (phenoactivity)
# experimentalContext: 48 h
Counter-ions that a name gives are not always drawn.
reportedEndpoint: Euclidean distance
Note: the reply should be a number with no unit written.

query: For the compound shown here, NS(=O)(=O)c1cc2c(cc1Cl)N=C(CSCc1ccccc1)NS2(=O)=O [Benzthiazide] , give the reported Euclidean distance.
result: 1.62

query: For the compound shown here, "NC[C@H]1O[C@H](O[C@H]2[C@H](O)[C@@H](O[C@H]3O[C@H](CO)[C@@H](O)[C@H](N)[C@H]3O)[C@H](N)C[C@@H]2N)[C@H](N)C[C@@H]1O" , give the reported Euclidean distance.
result: 1.4

query: For the compound shown here, O=C(O)COCCN1CCN(C(c2ccccc2)c2ccc(Cl)cc2)CC1 (centres undefined) [Cetirizine DiHCl] , give the reported Euclidean distance.
result: 1.47

query: For the compound shown here, COCCOC(=O)C1=C(C)NC(C)=C(C(=O)OC(C)C)C1c1cccc([N+](=O)[O-])c1 (centres undefined) , give the reported Euclidean distance.
result: 1.09

query: For the compound shown here, CC(C)NCC(O)c1ccc(O)c(O)c1 (centres undefined) [Isoprenaline HCl] , give the reported Euclidean distance.
result: 1.2

query: For the compound shown here, CC(C)NCC(O)COc1cccc2[nH]ccc12 (centres undefined) , give the reported Euclidean distance.
result: 0.895

query: For the compound shown here, Clc1ccc(CSC(Cn2ccnc2)c2ccc(Cl)cc2Cl)cc1 (centres undefined) [Sulconazole Nitrate] , give the reported Euclidean distance.
result: 1.31

query: For the compound shown here, CNC[C@H](O)c1ccc(O)c(O)c1 [Epinephrine HCl] , give the reported Euclidean distance.
result: 0.893

query: For the compound shown here, COCCCC/C(=N\OCCN)c1ccc(C(F)(F)F)cc1 [Fluvoxamine maleate] , give the reported Euclidean distance.
result: 1.58

====

# Tested on: DU145
# assayDetails: Euclidean distance of Cell Painting phenotypic profile (signed KS, 77 features) to DMSO centroid (dimensionless distance); 5 or 10 uM (library dependent); higher = stronger phenotypic change vs DMSO (phenoactivity)
# experimentalContext: 48 h
Counter-ions that a name gives are not always drawn.
reportedEndpoint: Euclidean distance
Note: the reply should be a number with no unit written.

query: For the compound shown here, "NC(=O)N/N=C/c1ccc([N+](=O)[O-])o1" , give the reported Euclidean distance.
result: 1.62

query: For the compound shown here, CC[C@H](C)C[C@H](C)CCCCCCCCC(=O)N[C@H]1C[C@@H](O)[C@@H](NCCN)NC(=O)[C@@H]2[C@@H](O)CCN2C(=O)[C@H]([C@H](O)CCN)NC(=O)[C@H]([C@H](O)[C@@H](O)c2ccc(O)cc2)NC(=O)[C@@H]2C[C@@H](O)CN2C(=O)[C@H]([C@@H](C)O)NC1=O [Caspofungin Acetate] , give the reported Euclidean distance.
result: 1.51

query: For the compound shown here, COc1cc2nc(N3CCN(C(=O)C4CCCO4)CC3)nc(N)c2cc1OC (stereo unspecified) [Terazosin HCl Dihydrate] , give the reported Euclidean distance.
result: 1.34

query: For the compound shown here, "Cn1cnc2c(F)c(Nc3ccc(Br)cc3F)c(C(=O)NOCCO)cc21" , give the reported Euclidean distance.
result: 2.61

query: For the compound shown here, CC(C)[C@H](N)C(=O)OCCOCn1cnc2c(=O)nc(N)[nH]c21 [Valaciclovir HCl] , give the reported Euclidean distance.
result: 2.3

query: For the compound shown here, COc1cc2c(cc1OC)[C@@H](Cc1cc(OC)c(OC)c(OC)c1)[N+](C)(CCCOC(=O)CC/C=C/CCC(=O)OCCC[N+]1(C)CCc3cc(OC)c(OC)cc3[C@H]1Cc1cc(OC)c(OC)c(OC)c1)CC2 (stereo partly specified) [Mivacurium chloride] , give the reported Euclidean distance.
result: 0.929

query: For the compound shown here, "Cc1c(C(=O)N2CCOc3ccc(-c4ccc(N)nc4)cc3C2)ccc(S(C)(=O)=O)c1F" , give the reported Euclidean distance.
result: 1.99

query: For the compound shown here, COc1ccccc1OCCNCC(O)COc1cccc2[nH]c3ccccc3c12 (stereo unspecified) [Carvedilol Phosphate] , give the reported Euclidean distance.
result: 1.98

query: For the compound shown here, CC(C)CN(C[C@@H](O)[C@H](Cc1ccccc1)NC(=O)O[C@H]1CO[C@H]2OCC[C@H]21)S(=O)(=O)c1ccc(N)cc1 [Darunavir Ethanolate] , give the reported Euclidean distance.
result: 1.31

query: For the compound shown here, "CCCCCCCCCCC[C@@H](C[C@@H]1OC(=O)[C@H]1CCCCCC)OC(=O)[C@H](CC(C)C)NC=O" , give the reported Euclidean distance.
result: 0.901

query: For the compound shown here, "O=P(O)(O)OC(Cn1cncn1)(Cn1cncn1)c1ccc(F)cc1F" , give the reported Euclidean distance.
result: 1.39

query: For the compound shown here, COc1cc(/C=C/C(=O)O)ccc1O [Ferulic Acid] , give the reported Euclidean distance.
result: 0.806

query: For the compound shown here, Cc1onc(-c2c(F)cccc2Cl)c1C(=O)N[C@@H]1C(=O)N2[C@@H]1SC(C)(C)[C@@H]2C(=O)O [Flucloxacillin sodium] , give the reported Euclidean distance.
result: 1.17

query: For the compound shown here, "O=C1[C@@H]2[C@H]3CC[C@H](C3)[C@@H]2C(=O)N1C[C@@H]1CCCC[C@H]1CN1CCN(c2nsc3ccccc23)CC1" , give the reported Euclidean distance.
result: 1.92

query: For the compound shown here, "O=c1cc(-c2ccc(O)cc2)oc2cc(O)cc(O)c12" , give the reported Euclidean distance.
result: 1.17

query: For the compound shown here, CCOC(=O)/C=C(C)/C=C/C=C(C)/C=C/c1c(C)cc(OC)c(C)c1C [Etretinate] , give the reported Euclidean distance.
result: 1.22

query: For the compound shown here, "Cc1c(-c2ccc(-c3ccccc3F)cc2)nc2ccc(F)cc2c1C(=O)O" , give the reported Euclidean distance.
result: 0.974

query: For the compound shown here, CCCC(=O)OCOC(=O)C1=C(C)NC(C)=C(C(=O)OC)C1c1cccc(Cl)c1Cl (stereo unspecified) [Clevidipine Butyrate] , give the reported Euclidean distance.
result: 1.47

query: For the compound shown here, Cc1onc(-c2ccccc2Cl)c1C(=O)N[C@@H]1C(=O)N2[C@@H]1SC(C)(C)[C@@H]2C(=O)O [Cloxacillin Sodium] , give the reported Euclidean distance.
result: 0.6

query: For the compound shown here, O=C(O)Cc1ccccc1Nc1c(Cl)cccc1Cl [Diclofenac Epolamine] , give the reported Euclidean distance.
result: 1.14

query: For the compound shown here, CC(=O)OC(C)OC(=O)C(C)c1ccc(-c2ccccc2)c(F)c1 (stereo unspecified) , give the reported Euclidean distance.
result: 0.893

query: For the compound shown here, "CCOC(=O)n1ccn(C)c1=S" , give the reported Euclidean distance.
result: 1.2

query: For the compound shown here, COc1ccc(C(=O)NCc2ccc(OCCN(C)C)cc2)cc1OC [Itopride hydrochloride] , give the reported Euclidean distance.
result: 0.903

query: For the compound shown here, C#CCN(C)Cc1ccccc1 [Pargyline hydrochloride] , give the reported Euclidean distance.
result: 1.18

query: For the compound shown here, "O=C(Cc1cccc(OC(F)(F)F)c1)Nc1ccc(CCCCc2nnc(NC(=O)Cc3ccccn3)s2)nn1" , give the reported Euclidean distance.
result: 1.99

query: For the compound shown here, "CC(C)c1ccc(NC(=O)Cn2cnc3c2c(=O)n(C)c(=O)n3C)cc1" , give the reported Euclidean distance.
result: 1.22

query: For the compound shown here, CC(=O)OCC(=O)[C@@]12OC(C)(C)O[C@@H]1C[C@H]1[C@@H]3C[C@H](F)C4=CC(=O)C=C[C@]4(C)[C@@]3(F)[C@@H](O)C[C@@]12C [Fluocinonide] , give the reported Euclidean distance.
result: 2.47

query: For the compound shown here, CN(C)CCOC(=O)C(c1ccccc1)C1(O)CCCC1 (stereo unspecified) [Cyclopentolate Hydrochloride] , give the reported Euclidean distance.
result: 0.841

query: For the compound shown here, CNCc1cc(-c2ccccc2F)n(S(=O)(=O)c2cccnc2)c1 [Vonoprazan Fumarate (TAK-438)] , give the reported Euclidean distance.
result: 0.972

query: For the compound shown here, "Oc1cccc(O)c1" , give the reported Euclidean distance.
result: 0.938

query: For the compound shown here, "Cc1c(NC(=O)OC[C@@H]2COCCN2)cn2ncnc(Nc3ccc4c(cnn4Cc4cccc(F)c4)c3)c12" , give the reported Euclidean distance.
result: 1.13

====

# Tested on: FB
# assayDetails: Euclidean distance of Cell Painting phenotypic profile (signed KS, 77 features) to DMSO centroid (dimensionless distance); 5 or 10 uM (library dependent); higher = stronger phenotypic change vs DMSO (phenoactivity)
# experimentalContext: 48 h
reportedEndpoint: Euclidean distance
Note: the reply should be a number with no unit written.

query: For the compound shown here, CN1C2CCCC1CC(NC(=O)c1nn(C)c3ccccc13)C2 (centres undefined) [Granisetron] , give the reported Euclidean distance.
result: 1.23

query: For the compound shown here, "Cc1ccc(-c2cc(C(F)(F)F)nn2-c2ccc(S(N)(=O)=O)cc2)cc1" , give the reported Euclidean distance.
result: 1.09

query: For the compound shown here, "Cc1ccccc1-c1cc(N2CCN(C)CC2)ncc1N(C)C(=O)C(C)(C)c1cc(C(F)(F)F)cc(C(F)(F)F)c1" , give the reported Euclidean distance.
result: 0.999

query: For the compound shown here, "Nc1ncn([C@@H]2O[C@H](CO)[C@@H](O)[C@H]2O)c(=O)n1" , give the reported Euclidean distance.
result: 2.79
